Test system: HUVEC/MSC spheroids viability
method description: Human HUVEC/MSC cell line growth inhibition [KRAS2];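 further: percent of DMSO vehicle control luminescence so 100% = untreated viability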
condition info: second compound 0.0316 µM; first compound 94.9 pM; stronger effect = lower value
Description: Multicellular complex tumor spheroid response to RAS pathway inhibitors in combination with a targeted agents in patient-derived cell lines with oncogenic KRAS variants from multiple cancer types A high-throughput screen of multi-cell type tumor spheroids was designed to identify active combinations of targeted small molecules and KRAS pathway inhibitors. […] Compounds. […] If the clinical Cmax for an agent had not been determined, the highest concentration tested was 10 microM. […]
endpoint label: viability, T/C (%)
Express your answer in %, writing the number without its unit.

>  <molecule>
CC(=O)Nc1cccc(-n2c(=O)n(C3CC3)c(=O)c3c(Nc4ccc(I)cc4F)n(C)c(=O)c(C)c32)c1 + C=CC(=O)N1CCN(c2nc(=O)n(-c3c(C)ccnc3C(C)C)c3nc(-c4c(O)cccc4F)c(F)cc23)C(C)C1

>  <viability, T/C / %>
126

$$$$
>  <molecule>
CC(=O)Nc1cccc(-n2c(=O)n(C3CC3)c(=O)c3c(Nc4ccc(I)cc4F)n(C)c(=O)c(C)c32)c1 + CNCc1ccccc1-c1csc(C(C)Nc2nc(C)nc3cc(OC)c(OC)cc23)c1

>  <viability, T/C / %>
101

$$$$
>  <molecule>
CC(=O)Nc1cccc(-n2c(=O)n(C3CC3)c(=O)c3c(Nc4ccc(I)cc4F)n(C)c(=O)c(C)c32)c1 + COc1cc2nc(C)nc(NC(C)c3cc(N)cc(C(F)(F)F)c3)c2cc1OC1CCOC1

>  <viability, T/C / %>
126

$$$$

Could you now look at the following molecule, please?
Problem: Recorded viability, T/C of CC(=O)Nc1cccc(-n2c(=O)n(C3CC3)c(=O)c3c(Nc4ccc(I)cc4F)n(C)c(=O)c(C)c32)c1 + CC1OCC2(CCN(c3cnc(Sc4ccnc(N)c4Cl)c(N)n3)CC2)C1N , please.
Solution: 110

Each recorded value in this set is attributed to PubChem BioAssay AID2060912.
